Items are presented alongside their recorded T/C.
# Tested on: P388 leukemia ip, CD2F1 mice, survival T/C
# Measurement Notes: NCI In Vivo Anticancer Drug Screen. Data for tumor model P388 Leukemia (intraperitoneal) in CD2F1 (CDF1) mice
# Experimental Setup: endpoint: median survival time; dose: 100.0 mg/kg/injection; schedule: Q01DX005 (ip); vehicle: Klucel (hydroxypropylcellulose) (HPC); higher = longer survival
Inconclusive results and toxic doses are left out.

Q) Suppose we examine the molecule Cc1ccc(N2CC=C(c3ccccc3)OP2(=O)N2CC2)cc1 (stereo not given) ; what T/C value has been reported?
A) 101 % of control

Q) Try C(=N\N1CN(/N=C/c2ccccc2)C(c2ccccc2)C1c1ccccc1)/c1ccccc1 (stereo not given) next.
A) 99 % of control

Q) Try OC12CC3CC(CN1)CC(C3)C2 next.
A) 99 % of control

Q) Try COC(CN(Cc1cccs1)S(=O)(=O)c1ccc(C)cc1)OC next.
A) 94 % of control

Q) Try Cc1nc2c(cnn2C)c(=O)n1-c1ccccc1 next.
A) 98 % of control

----------
# System: P388 leukemia ip, CD2F1 mice, survival T/C
# Measurement Notes: NCI In Vivo Anticancer Drug Screen. Data for tumor model P388 Leukemia (intraperitoneal) in CD2F1 (CDF1) mice
# Experimental Setup: endpoint: median survival time; dose: 30.0 mg/kg/injection; schedule: Q01DX005 (ip); vehicle: Klucel (hydroxypropylcellulose) (HPC); higher = longer survival
Inconclusive results and toxic doses are left out.
Items are presented alongside their recorded T/C.

# example entries with known answers
CN(C(=[Se])[Se]C(=[Se])N(C)C1CCCCC1)C1CCCCC1 ... 96 % of control
CC(=O)O[C@H]1C[C@@H]2C(COC(=O)CC(C)C)=CO[C@@H](OC(=O)CC(C)C)[C@@H]2[C@@]12CO2 ... 95 % of control
COc1ccc(OC)c(NC(=O)C2=C(C)NC(C)=C(C(=O)Nc3cc(OC)ccc3OC)C2c2cccc([N+](=O)[O-])c2)c1 ... 92 % of control

Let us examine a further case.
Q) Suppose we examine the compound COc1ccc(/C=C2/C(=O)N(c3ccccc3)N=C2C)c(OC)c1 ; what T/C value has been reported?
A) 91 % of control

----------
# Test system: P388 leukemia ip, CD2F1 mice, survival T/C
# Measurement Notes: NCI In Vivo Anticancer Drug Screen. Data for tumor model P388 Leukemia (intraperitoneal) in CD2F1 (CDF1) mice
# Experimental Setup: endpoint: median survival time; dose: 400.0 mg/kg/injection; schedule: Q01DX001 (ip); vehicle: saline with Tween-80; higher = longer survival
Inconclusive results and toxic doses are left out.
Items are presented alongside their recorded T/C.

COC(=O)/C(C#N)=C/Sc1ccccc1 ... 97 % of control

Q) What value of T/C on P388 leukemia ip, CD2F1 mice, survival T/C does c1cc(Oc2ccc3ccncc3c2)c2ccncc2c1 have?
A) 95 % of control

----------
# Test system: P388 leukemia ip, CD2F1 mice, survival T/C
# Measurement Notes: NCI In Vivo Anticancer Drug Screen. Data for tumor model P388 Leukemia (intraperitoneal) in CD2F1 (CDF1) mice
# Experimental Setup: endpoint: median survival time; dose: 50.0 mg/kg/injection; schedule: Q01DX005 (ip); vehicle: Klucel (hydroxypropylcellulose) (HPC); higher = longer survival
Inconclusive results and toxic doses are left out. Square brackets hold non-standard residues; d marks the D form. Peptide text beside a SMILES is read from it. * marks the point of attachment. ξ: configuration not given here. Cbz = O=C(OCc1ccccc1)*; ξNva = CCCC(N)C(=O)O
Items are presented alongside their recorded T/C.

# example entries with known answers
N=C(N)c1ccc(N=Nc2ccc(O)c3c2ccc[n+]3[O-])cc1 ... 117 % of control
O=C1c2[nH]cnc2N(Cc2ccc(Cl)cc2)C2=NCCN12 ... 102 % of control
CCOC(=O)C1=C(c2ccccc2)OC(N)=C(C#N)C1c1ccc(C)cc1 (stereo not drawn) ... 113 % of control
CC(=O)Nc1c(O)c2ccccc2c2ccccc12 ... 87 % of control
COc1cc(CCN=Cc2cc(Cl)cc(Cl)c2O)c([N+](=O)[O-])cc1OC ... 93 % of control
OC12CC3CC(CN1)CC(C3)C2 ... 109 % of control

Q) Suppose we examine the compound Clc1ccccc1C(Nc1ncccn1)Nc1ncccn1 ; what T/C value has been reported?
A) 93 % of control

Q) Try COc1cccc2c1C(=O)c1ccccc1-2 next.
A) 102 % of control

Q) Try COC(=O)NP1(=O)NCc2ccccc2CN1 next.
A) 100 % of control

Q) Try Nc1nnc(SCCCCCCCCCCSc2nnc(N)s2)s1 next.
A) 95 % of control

Q) Try CCOC1NC(=O)C(OCC)NC1=O (stereo not drawn) next.
A) 96 % of control

Q) Try CCCC(NC(=O)OCc1ccccc1)C(=O)NCC(=O)O (stereo not drawn) (Cbz-[ξNva]-Gly-OH) next.
A) 107 % of control

Q) Try O=C(NC(Cc1ccc(Cl)cc1)C(=O)O)c1cccc(Br)c1 (stereo not drawn) next.
A) 102 % of control

The values you see were collected from PubChem BioAssay AID330.
